System: HepG2
PROTOCOL SUMMARY: Cell proliferation assay, HepG2 (HCC)
Assay type: cell-based
CONDITION: Homo sapiens, 48 hours of treatment, Table 3
RESULT TYPE: GI50

stdin: Return GI50 measured with HepG2 given this compound: CCc1ccc(-c2cc(NCC3CCN(C4CC4)CC3)c3cc(OC)c(OCCCN4CCCC4)cc3n2)o1
stdout: 100 to 1000 nM

stdin: Again, but for COc1cc2c(NC3CCN(C4CC4)CC3)cc(-c3ccc(C)o3)nc2cc1OCCCN1CCCC1
stdout: 100 to 1000 nM

stdin: Again, but for CNC(=O)CCNc1cc(-c2ccc(C)o2)nc2cc(OCCCN3CCCC3)c(OC)cc12
stdout: ≤ 10000 nM

stdin: Again, but for COc1cc2c(NC3CCN(C)CC3)cc(-c3ccc(C)o3)nc2cc1OCC1CCNCC1
stdout: 1000 to 10000 nM

stdin: Again, but for COc1cc2c(NC3CC4(CCN(C)CC4)C3)cc(-c3ccc(C)o3)nc2cc1OCC1CCN(C)CC1
stdout: 100 to 1000 nM

stdin: Again, but for CCc1ccc(-c2cc(NC3CCN(C4CC4)CC3)c3cc(OC)c(OCCCN4CCCC4)cc3n2)o1
stdout: 1000 to 10000 nM
